Values from the supplement of paper PMC4962491

tested on: FaDu; experiment: mitochondrial oxygen consumption rate normalised to cell number, Z score over the library; higher = higher oxygen consumption (negative = OCR reduction); settings: treatment time 24 h; assay medium: 5 mM galactose, 5 mM pyruvate, 4 mM glutamine; 10 µM
Whole data set: some 1,600 compounds, median “mitochondrial oxygen consumption rate normalised to cell number, Z score over the library” near 0.065, cut for the lowest 2% near -2.2. The sample as a whole holds a higher share of the lowest values than the screen did.
Class membership depends on mitochondrial oxygen consumption rate normalised alone; the intervals are lo: < -0.3; med: ≥ -0.3 and < 0.1; hi: ≥ 0.1

Solved entries:
MOLECULE | DISCRETE LABEL
O=C([O-])/C=C/C(=O)[O-].[Fe+2] | med
CC(=O)NC(Cc1ccccc1)C(=O)O (stereo not drawn) | hi
CC[C@H]1OC(=O)C[C@@H](O)[C@H](C)[C@@H](O[C@@H]2O[C@H](C)[C@@H](O)[C@H](N(C)C)[C@H]2O)[C@@H](CCN2C[C@H](C)C[C@H](C)C2)C[C@@H](C)C(=O)/C=C/C(C)=C/[C@@H]1CO[C@@H]1O[C@H](C)[C@@H](O)[C@@H](OC)[C@H]1OC | hi
CO/N=C1\C[C@]2(C[C@@H]3C[C@@H](C/C=C(\C)C[C@@H](C)/C=C/C=C4\CO[C@@H]5[C@H](O)C(C)=C[C@@H](C(=O)O3)[C@]45O)O2)O[C@H](/C(C)=C/C(C)C)[C@H]1C | lo
CN1C(=O)CC(C)(c2ccccc2)C1=O (stereo not drawn) | lo

Consider now this further molecule.
Q. State the class of the molecule shown: FC(F)(Cl)C(F)(F)Cl
A. hi
